meta.source: patent US8232273B2

# Test system: Bcl-xL (GST-Bcl-xL) (Homo sapiens, UniProt Q07817)
# Sequence (Q07817 whole entry, species assumed): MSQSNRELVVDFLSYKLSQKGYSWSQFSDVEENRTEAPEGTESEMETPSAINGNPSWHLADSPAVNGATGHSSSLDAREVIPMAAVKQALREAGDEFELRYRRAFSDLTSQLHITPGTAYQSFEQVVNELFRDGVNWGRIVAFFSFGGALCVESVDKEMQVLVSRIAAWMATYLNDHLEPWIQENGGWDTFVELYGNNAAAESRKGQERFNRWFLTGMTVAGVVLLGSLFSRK
# Experimental protocol: TR-FRET binding assay, competition with F-Bak for the Bcl-xL binding site
# Condition notes: values listed in the order of Table 1, read-out: TR-FRET assay results (Ki), Bcl-xL
pKi listing for selected compounds.
Scale: pKi equals -log10([C]), with [C] in mol/L.

Some solved cases for reference:
> print(dat)
                                test.smiles                               test.system  observed.property  recorded.value
1  CN(C)CCOc1ccc(OCCCc2sc(N3CCc4cccc(C(=O)Nc5nc6ccccc6s5)c4C3)nc2C(=O)O)cc1  Bcl-xL (GST-Bcl-xL) (Homo sapiens, UniProt Q07817)                pKi           10.30
2  N#Cc1nccnc1-c1ccc(OCCCc2sc(N3CCc4cccc(C(=O)Nc5nc6ccccc6s5)c4C3)nc2C(=O)O)cc1  Bcl-xL (GST-Bcl-xL) (Homo sapiens, UniProt Q07817)                pKi           10.15
3  O=C(Nc1nc2ccccc2s1)c1cccc2c1CN(c1nc(C(=O)O)c(CCCOc3ccc(N4CCNCC4)cc3)s1)CC2  Bcl-xL (GST-Bcl-xL) (Homo sapiens, UniProt Q07817)                pKi           10.30
4  O=C(Nc1nc2ccccc2s1)c1cccc2c1CN(c1nc(C(=O)O)c(CCCOc3ccc(OCCN4CCCC4)cc3)s1)CC2  Bcl-xL (GST-Bcl-xL) (Homo sapiens, UniProt Q07817)                pKi           10.40

Incoming: Lab note: need pKi with Bcl-xL (GST-Bcl-xL) (Homo sapiens, UniProt Q07817) for entry CN(C)CC#Cc1cc(F)c(OCCCc2sc(N3CCc4cccc(C(=O)Nc5nc6ccccc6s5)c4C3)nc2C(=O)O)cc1F , please look it up.
Outgoing: 11.00

Incoming: Thanks! And O=C(Nc1nc2ccccc2s1)c1cccc2c1CN(c1nc(C(=O)O)c(CCCOc3ccc(-n4cncn4)cc3)s1)CC2 ?
Outgoing: 10.30

Incoming: // same read-out, input: O=C(Nc1nc2ccccc2s1)c1cccc2c1CN(c1ccc(CCc3ccccc3)c(C(=O)O)n1)CC2
Outgoing: 6.18
